# key: entry, value: pIC50
System: 769-P
ASSAY_DETAILS: Cytotoxicity against human 769-P cells after 48 hrs by MTT assay
Assay type: functional, cell-based
The scale used: pIC50 is minus the common logarithm of the concentration in molar units.

Reference set, count: 5
# CHEMICAL_SMILES, MEASURED_TARGET, pIC50
records = [
    ("CCn1c2ccccc2c2cc(C(=O)OCCCCCCOC(=O)c3cc4c5ccccc5n(CC)c4c(C)n3)nc(C)c21", "769-P", 4.37),
    ("Cc1nc(C(=O)OCCCOC(=O)c2cc3c4ccccc4n(C)c3c(C)n2)cc2c3ccccc3n(C)c12", "769-P", 4.79),
    ("CCCCn1c2ccccc2c2cc(C(=O)OCCCCCCCOC(=O)c3cc4c5ccccc5n(CCCC)c4c(C)n3)nc(C)c21", "769-P", 4.02),
    ("O=C(OCCCCCCOC(=O)c1cc2c3ccccc3n(Cc3ccccc3)c2cn1)c1cc2c3ccccc3n(Cc3ccccc3)c2cn1", "769-P", 4.33),
    ("O=C(OCCCCCCCCCOC(=O)c1cc2c3ccccc3n(Cc3cccc(Cl)c3)c2cn1)c1cc2c3ccccc3n(Cc3cccc(Cl)c3)c2cn1", "769-P", 3.84),
]

Q: Item O=C(O)c1cc2c3ccccc3n(CCCc3ccccc3)c2cn1 : provide pIC50
Result: 4.25

Q: Report pIC50 for O=C(OCCCCCCCOC(=O)c1cc2c3ccccc3n(CCCc3ccccc3)c2cn1)c1cc2c3ccccc3n(CCCc3ccccc3)c2cn1
Result: 4.36

Q: Give the reported value of pIC50 for this record: CCCCn1c2ccccc2c2cc(C(=O)OCCCCCCCCCCOC(=O)c3cc4c5ccccc5n(CCCC)c4c(C)n3)nc(C)c21
Result: 3.94
